# System: HEK-293T
# protocol-summary: Multiplex assay against HEK293T
# Format: toxicity, cell-based
# reported-conditions: human, 12 h, 10 µM, compound concentration 10 uM, number of replicates 2
Catalogue of Population Fragmented Nuclei (%) values
observable: Population Fragmented Nuclei (%)

CN1CCN(C(=O)Cc2ccc(N/C(=C3\C(=O)Nc4cc(Cl)ccc43)c3ccccc3)cc2)CC1 = 1%
COc1cc2nc(-c3cc(F)ccc3O)nc(N[C@@H]3CNC[C@H]3C(C)(C)O)c2cc1OC.Cl.Cl = 2%
N[C@@H]1c2cccnc2[C@H](OC(=O)N2CCC(n3c(=O)[nH]c4ncccc43)CC2)CC[C@H]1c1cccc(F)c1F [RIMEGEPANT] = 4%
Cn1c(Nc2c(Cl)cccc2Cl)nc2ccc3nc[nH]c(=O)c3c21 = 1%

---

# Tested on: Fibroblast
# protocol-summary: Multiplex assay against human fibroblast
# Assay type: toxicity, cell-based
# reported-conditions: 48 h, 1 µM, compound concentration 1 uM, number of replicates 2
observable: Population Hoechst High Intensity Objects (%)

Cc1cc(-c2cnc(N)c3c(-c4ccc5scnc5c4)csc23)n(C)n1 = 0
CN(C)C/C=C/C(=O)Nc1cccc(S(=O)(=O)N2CCC(NC(=O)c3n[nH]cc3NC(=O)c3c(Cl)cc(Cl)cc3Cl)CC2)c1 = 0
CN(C)CCCN1c2ccccc2Sc2ccc(Cl)cc21.Cl [CHLORPROMAZINE HYDROCHLORIDE] = 0
CN(C)C/C=C/C(=O)Nc1ccc(C(=O)N2CCCC(Nc3ncc(Cl)c(-c4c[nH]c5ccccc45)n3)C2)cc1 (stereo not drawn) = 0
COC(=O)c1ccc2c(c1)NC(=O)/C2=C(\Nc1ccc(-c2nccn2C)cc1)c1ccccc1 = 0
CN1CCN(C(=O)Cc2ccc(N/C(=C3\C(=O)Nc4cc(Cl)ccc43)c3ccccc3)cc2)CC1 = 0
CC(C)(C)c1cnc(CSc2cnc(NC(=O)C3CCN(CC(=O)NCCOCCOCCOCCNc4cccc5c4C(=O)N(C4CCC(=O)NC4=O)C5=O)CC3)s2)o1 (stereo not drawn) = 0
Cn1cc(-c2ccc(N(C(=O)NCc3ccccc3)[C@H]3CC[C@H](Nc4ccc(C#N)cn4)CC3)cc2)ccc1=O = 0

---

# Tested on: U2OS
# protocol-summary: Multiplex assay against U2OS
# Format: toxicity, cell-based
# reported-conditions: human, 48 h, 1 µM, compound concentration 1 uM, number of replicates 2
observable: Population Mitochondria Different-Phenotype (%)

Cn1c(Nc2c(Cl)cccc2Cl)nc2ccc3nc[nH]c(=O)c3c21 = 0
Cn1cc(-c2ccc(N(C(=O)NCc3ccccc3)[C@H]3CC[C@H](Nc4ccc(C#N)cn4)CC3)cc2)ccc1=O = 0
CCc1ncnc(N2CCN(C(C)=O)CC2)c1C#Cc1ccc(N)nc1.Cl.Cl = 0
Cc1cc(-c2cnc(N)c3c(-c4ccc5scnc5c4)csc23)n(C)n1 = 1
CCC(=O)O[C@@H](OP(=O)(CCCCc1ccccc1)CC(=O)N1C[C@H](C2CCCCC2)C[C@H]1C(=O)[O-])C(C)C.[Na+] (stereo not given in full) = 0

---

# Tested on: Fibroblast
# protocol-summary: Multiplex assay against human fibroblast
# Format: toxicity, cell-based
# reported-conditions: 48 h, 10 µM, compound concentration 10 uM, number of replicates 2
Catalogue of Population Hoechst High Intensity Objects (%) values
observable: Population Hoechst High Intensity Objects (%)

COc1cc(OC)cc(-c2cc3cnc(N)nc3nc2NC(=O)NC(C)(C)C)c1 = 0
CN1CCN(C(=O)Cc2ccc(N/C(=C3\C(=O)Nc4cc(Cl)ccc43)c3ccccc3)cc2)CC1 = 0
N[C@@H]1c2cccnc2[C@H](OC(=O)N2CCC(n3c(=O)[nH]c4ncccc43)CC2)CC[C@H]1c1cccc(F)c1F = 0
CCc1ncnc(N2CCN(C(C)=O)CC2)c1C#Cc1ccc(N)nc1.Cl.Cl = 0
Fc1cccc(-n2cnc3c(NCc4nc5ccc(F)c(F)c5[nH]4)nc(N4CCOCC4)nc32)c1 = 0
Cn1c(Nc2c(Cl)cccc2Cl)nc2ccc3nc[nH]c(=O)c3c21 = 0
CN(C)C/C=C/C(=O)Nc1ccc(C(=O)N2CCCC(Nc3ncc(Cl)c(-c4c[nH]c5ccccc45)n3)C2)cc1 (configuration not stated) = 0
Cc1cc(-c2cnc(N)c3c(-c4ccc5scnc5c4)csc23)n(C)n1 = 0
O=C(Nc1ccc(Cl)c(-c2ccccn2)c1)c1cccc(COc2ccc(Br)cc2CNCCO)c1.O=CO = 0
COc1cc2nc(-c3cc(F)ccc3O)nc(N[C@@H]3CNC[C@H]3C(C)(C)O)c2cc1OC.Cl.Cl = 0
CS(=O)(=O)c1ccc(C(=O)Nc2ccc(F)c(COc3ccc(Br)cc3CN3CC[C@H](O)C3)c2)c(Cl)c1.O=CO = 0
CCC(=O)O[C@@H](OP(=O)(CCCCc1ccccc1)CC(=O)N1C[C@H](C2CCCCC2)C[C@H]1C(=O)[O-])C(C)C.[Na+] (some centres not stated) = 0
CC(C)(C)c1cnc(CSc2cnc(NC(=O)C3CCN(CC(=O)NCCOCCOCCOCCNc4cccc5c4C(=O)N(C4CCC(=O)NC4=O)C5=O)CC3)s2)o1 (configuration not stated) = 0
CC(=O)N(CCN(C)C)c1ccc(N/C(=C2\C(=O)Nc3cc(Cl)ccc32)c2ccccc2)cn1 = 0
CNC(=O)c1nn(C)c2c1C(C)(C)Cc1cnc(Nc3ccc(N4CCN(C)CC4)cc3)nc1-2 = 0
Br.Oc1cc2c(cc1O)C(c1ccccc1)CNCC2 (configuration not stated) = 0
O=C1CCCN1CCNc1nc(Nc2ccc(Cl)c(Cl)c2)ncc1C(F)(F)F = 0

Value source: ChEMBL document CHEMBL5303300
